Biological target: T1, CRF1R receptor (UniProt P34998 24-415, limits assumed)
T1 sequence (looked up): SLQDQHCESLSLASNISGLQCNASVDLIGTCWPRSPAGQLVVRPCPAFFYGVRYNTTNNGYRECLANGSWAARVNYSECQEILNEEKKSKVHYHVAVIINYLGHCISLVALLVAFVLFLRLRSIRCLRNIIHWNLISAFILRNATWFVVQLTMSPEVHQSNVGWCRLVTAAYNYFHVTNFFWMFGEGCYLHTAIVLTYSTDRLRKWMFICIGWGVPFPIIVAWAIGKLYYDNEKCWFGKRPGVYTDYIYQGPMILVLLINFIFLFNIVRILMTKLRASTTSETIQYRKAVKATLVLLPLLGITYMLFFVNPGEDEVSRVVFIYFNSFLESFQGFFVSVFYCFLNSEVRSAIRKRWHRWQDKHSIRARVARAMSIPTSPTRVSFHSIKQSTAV
Test: cell-based or functional assay
*1 amine or outer side, *2 acyl side, *3 side chain or, on linkers, in order; H or OH if unused. Primed or numbered codes have the meaning given here. Where no end group is shown, it is not given here. Side-chain parts run from the residue outwards. [ ]: non-standard residue; d: D form. The star is where a group is joined. Thp′ = 4-amino-tetrahydro-2H-pyran-4-yl-acetic acid, O=C(CC1(N[*:1])CCOCC1)[*:2]; C20 diacid = O=C(O)CCCCCCCCCCCCCCCCCCC(=O)*; C18 diacid = O=C(O)CCCCCCCCCCCCCCCCC(=O)*; C16 diacid = O=C(O)CCCCCCCCCCCCCCC(=O)*; γGlu = O=C(O)[C@H](CCC(=O)[*:2])N[*:1]; AEEA = NCCOCCOCC(=O)O
Quick reference for EC50 among some binders

Return reported EC50. Input binder: Ac-VLSLD[dV]PIKLK([γGlu-C16 diacid])QILLKQERQKKQREQAEKNKQILEQV-NH2 [SEQ ID NO 3]
> 250 nM

Return reported EC50. Input binder: IVLSLDVPIKLK([AEEA-AEEA-γGlu-C18 diacid])KILLEQEKQKKQREQAETNKQILAQV-NH2 (not fully specified (residue 7); printed as IVLSLDVPIKLK*KILLEQEKQKKQREQAETNKQILAQV-NH2) [SEQ ID NO 149]
> 250 nM

Return reported EC50. Input binder: Ac-IVLSLD[dV]PIKLK([γGlu-C20 diacid])KILLEQEKQKKQREQAETN[Thp′]QILAQV-NH2 [SEQ ID NO 210]
> 250 nM

Return reported EC50. Input binder: VLSLD[dV]PIKLK([γGlu-C16 diacid])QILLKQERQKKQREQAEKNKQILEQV-NH2 [SEQ ID NO 4]
> 250 nM
